TESTED TARGET: nitric oxide synthase (Mus musculus, UniProt P29477)
Sequence (P29477 whole entry): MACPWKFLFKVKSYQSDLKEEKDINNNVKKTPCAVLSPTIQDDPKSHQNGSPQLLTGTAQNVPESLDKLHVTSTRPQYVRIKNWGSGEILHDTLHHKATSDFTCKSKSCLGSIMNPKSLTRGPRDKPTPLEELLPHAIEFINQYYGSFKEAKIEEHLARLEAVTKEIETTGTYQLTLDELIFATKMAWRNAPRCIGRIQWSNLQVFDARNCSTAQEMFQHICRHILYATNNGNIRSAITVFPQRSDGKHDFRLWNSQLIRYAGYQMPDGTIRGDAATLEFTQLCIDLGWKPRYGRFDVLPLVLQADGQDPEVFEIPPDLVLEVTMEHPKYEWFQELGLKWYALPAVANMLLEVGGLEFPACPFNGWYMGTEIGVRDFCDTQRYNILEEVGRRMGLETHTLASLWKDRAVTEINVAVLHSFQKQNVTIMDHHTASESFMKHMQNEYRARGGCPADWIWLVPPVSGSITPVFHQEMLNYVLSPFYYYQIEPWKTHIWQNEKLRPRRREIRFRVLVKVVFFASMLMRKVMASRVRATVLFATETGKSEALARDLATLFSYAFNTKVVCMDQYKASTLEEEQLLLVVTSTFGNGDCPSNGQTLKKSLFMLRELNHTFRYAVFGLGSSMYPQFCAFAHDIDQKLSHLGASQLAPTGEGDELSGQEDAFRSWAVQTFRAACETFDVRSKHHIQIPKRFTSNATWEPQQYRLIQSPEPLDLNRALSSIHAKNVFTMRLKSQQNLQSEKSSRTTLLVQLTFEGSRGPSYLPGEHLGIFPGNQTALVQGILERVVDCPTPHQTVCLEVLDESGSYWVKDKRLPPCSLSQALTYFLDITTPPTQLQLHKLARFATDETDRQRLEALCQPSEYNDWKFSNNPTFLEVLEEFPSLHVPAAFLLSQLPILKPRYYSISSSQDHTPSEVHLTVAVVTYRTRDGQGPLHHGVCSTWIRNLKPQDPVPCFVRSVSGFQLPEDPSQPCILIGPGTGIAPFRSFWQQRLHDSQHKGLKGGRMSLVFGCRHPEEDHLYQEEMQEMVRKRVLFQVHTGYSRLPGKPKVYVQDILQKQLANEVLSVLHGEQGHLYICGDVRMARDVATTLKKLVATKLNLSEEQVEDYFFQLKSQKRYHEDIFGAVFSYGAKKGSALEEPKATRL
TEST DESCRIPTION: NOS inhibition assay: nitric oxide (nitrite, Greiss reagent) production from PAM 212 keratinocytes stimulated with gamma interferon
CONDITION DESCRIPTION: 100 U/ml gamma interferon, 72 hours, nitrite in medium
REPORTED ENDPOINT: pIC50
One number for each entry, as −log10 of the molar value.

Examples with answers:
1) Cc1nnc2n1N(C)C(C=Cc1ccccc1)S2 (centres unmarked)
4.77
2) Fc1ccc(-c2nnc3n2N=CC=C(c2ccccc2)S3)cc1
4.68
3) CSc1nnc(C2CCCCC2)n1N=CC(Br)=Cc1ccccc1
3.84
4) C1=Nn2c(nnc2-c2cccs2)SC(c2ccccc2)=C1
4.32
5) C1=C(c2ccccc2)Sc2nnc(-c3ccccc3)n2NC1
3.96

Please give pIC50, item by item, for the list that follows.
1. CN1C(C=Cc2ccccc2)Sc2nnc(-c3cccs3)n21 (centres unmarked)
2. Nn1c(S)nnc1-c1ccc(F)cc1 [III (R = 4-F—C6H4—)]
3. Fc1ccc(-c2nnc3n2N=C(C(F)(F)F)CS3)cc1
4. CN1C(C=Cc2ccccc2)Sc2nnc(-c3ccco3)n21 (centres unmarked)

Solution:
[4.82, 4.01, 4.52, 4.85]

* * *

REPORTED ENDPOINT: melting point

See these solved cases before continuing.
1. CN1C(C=Cc2ccccc2)Sc2nnc(-c3ccco3)n21 (stereo not drawn) [IXd]
128 to 129.5 °C
2. CN1C(C=Cc2ccccc2)Sc2nnc(-c3cccs3)n21 (stereo not drawn) [IXa]
250 to 252 °C
3. C1=C(c2ccccc2)Sc2nnc(-c3ccccc3)n2NC1 [Va]
222 to 223 °C
4. CC(CC(=O)Oc1ccccc1)Sc1nnc(-c2cccs2)n1N (stereo not drawn) [VIb]
109.5 to 111 °C
5. COc1ccccc1C=CC=Nn1c(S)nnc1-c1cccs1 [VIIb]
227 to 228 °C
6. O=[N+]([O-])c1ccccc1C=CC=Nn1c(S)nnc1-c1cccs1 [Compound VIIc]
214 to 215 °C
7. Sc1nnc(-c2cccs2)n1N=CC=Cc1ccccc1 [VIIa]
206 to 206.5 °C
8. Fc1ccc(-c2nnc3n2N=CC=C(c2ccccc2)S3)cc1 [IVb]
217 to 219 °C

Go through the items and report each one's melting point.
1. C1=Nn2c(nnc2-c2cccs2)SC(c2ccccc2)=C1 [IVc]
2. Cc1nnc2n1N=C(C(F)(F)F)CS2 [VIIIc]
3. CC(CCCl)Sc1nnc(-c2cccs2)n1N (stereo not drawn)
4. Cc1nnc2n1N(C)C(C=Cc1ccccc1)S2 (stereo not drawn) [IXf]

Solution:
1: 164 to 166 °C; 2: 85 to 86 °C; 3: 196 to 197 °C; 4: 125 to 126 °C

Reference source: patent US20020032325A1
